Test system: COLO 205 colon
Assay: NCI tumour cell line growth inhibition, 48 h
PROPERTY_MEASURED: TGI

Below are worked cases with known answers.
COMPOUND	PROPERTY_MEASURED	RESULT
O=c1[nH]c(Br)nc2c(Br)c[nH]c12	TGI	> 100 µM
CC[C@@]1(O)C(=O)OCc2c1cc1n(c2=O)Cc2c-1nc1ccccc1c2CC[Si](C)(C)C	TGI	14.2 µM
C/C(=N\Nc1ccc([N+](=O)[O-])cc1[N+](=O)[O-])c1ccc2ccccc2n1	TGI	> 100 µM
CC(=O)O[C@@H]1CO[C@H]2O[C@H]3[C@@H](C(C=O)=C[C@H](O)[C@@H]4C5=C(C(C)C)CC[C@]5(C)CC[C@@]34C)[C@@]2(O)C1=O	TGI	0.249 µM
O=S1(=O)CCN(Cc2ccccn2)CC1	TGI	> 100 µM
CCN(CC)c1ccc2c(c1)Oc1nc(N)c(C#N)c(N)c1C2Sc1ccc(SC)cc1 (centres undefined)	TGI	3.55 µM
c1ccc(N=C2SC(=NNc3ccccc3)SC2=Nc2ccccc2)cc1	TGI	> 100 µM
OCCN(CCO)c1ccc2c(C(F)(F)F)cc(C(F)(F)F)nc2n1	TGI	> 100 µM

Quick check: TGI on COLO 205 colon, item "Nc1cc(-c2ccccc2)ccc1O" ? > 100 µM

Let us now turn to "CC(=O)Nc1ncc(Sc2ccccc2C(=O)O)s1" > 100 µM

Record: COCCOC(=O)C1=C(C)NC2=C(C(=O)CC(c3ccccc3OC)C2)C1c1cccc(O)c1 (centres undefined) 24.8 µM

How about "O=c1[nH]c2ccc(CC(=S)N3CCOCC3)cc2s1" ? > 100 µM

Similarly, "COc1cc(CSc2nc3ccc(C)cc3c(=O)n2Cc2ccccc2)cc(OC)c1OC" ? 3.13 µM

Would you kindly repeat that for Cc1ccc(C(=O)C(C)N)cc1 (centres undefined) ? > 100 µM

What about this compound? "O=c1ccccc2cccc(O)c12" > 100 µM

---

Below, each entry is listed with its recorded GI50.
System: DU-145 prostate
Assay: NCI tumour cell line growth inhibition, 48 h

The cases that follow already have their GI50 on record.
MOLECULE	RESULT
CC(=O)/C=C/C1=C(c2cc3ccccc3s2)c2ccccc2CC1	52.8 µM
COc1ccc2c(c1)CC[C@@H]1[C@@H]2CC[C@@]2(C)[C@H]1CC1(CCCCC1)[C@@H]2O	15.2 µM
CN1CCN(c2ccc3c4c(cccc24)C(=O)N(CCN2CCN(CCCN4CCN(CCN5C(=O)c6cccc7c(N8CCN(C)CC8)ccc(c67)C5=O)CC4)CC2)C3=O)CC1	7.19 µM
O=C(Nc1ccc(Br)cc1)Nc1n[nH]c2ccccc12	> 60.2 µM
O=C1c2ccccc2C(=O)N1c1ccc(S(=O)(=O)Nc2ncccn2)cc1	> 100 µM

I'm curious: which GI50 was measured for "CC(C)(C)c1ccc([I+]c2ccc(C(C)(C)C)cc2)cc1" tested on DU-145 prostate? 1.7 µM

Please answer likewise for "N#Cc1ccccc1C#C/C=C\C#Cc1ccc(OCCCNC(=O)c2cc3ccccc3[nH]2)cc1" 19.4 µM

Please do the same for COC(CCP(=O)(c1ccccc1)c1ccccc1)(C(=O)c1ccccc1)c1ccccc1 (stereo not given) as well. 12 µM

Proceed to "CCCCC(=O)N/N=C/c1cc(I)cc(I)c1O" 4.24 µM

Now try "COc1ccc2c(c1)c(C1(c3cn(C)c4ccc(OC)cc34)C(=O)Nc3ccc(F)cc31)cn2C" . 11.5 µM
